- measured.target: T1, human Trop-2-His (human, UniProt P09758 27-274, limits assumed)
- T1 construct: by analogy with the macaque construct it is probably the extracellular domain with a His tag; also called Trop-2-His protein
- T1 sequence: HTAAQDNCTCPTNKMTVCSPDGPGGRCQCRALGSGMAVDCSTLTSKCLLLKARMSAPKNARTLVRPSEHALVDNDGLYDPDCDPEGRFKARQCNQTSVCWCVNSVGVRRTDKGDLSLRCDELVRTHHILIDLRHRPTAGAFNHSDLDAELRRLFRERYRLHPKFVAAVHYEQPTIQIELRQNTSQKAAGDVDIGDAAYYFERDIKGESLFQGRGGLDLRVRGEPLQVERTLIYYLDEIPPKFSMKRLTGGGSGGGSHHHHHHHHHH
- procedure.text: ELISA, plate-coated human Trop-2-His
- Method: After the liquid was discarded, 2% BSA (SIGMA, B2064-100G) diluted with PBS was added at 300 μL/well for blocking, and the mixture was incubated at 37° C. for 2 h. […] The absorbance values at 450 nm were taken using a microplate reader. The binding curves of antibodies for antigen were fitted using software, and the EC₅₀ values were calculated.
Attribute: EC50
property: EC50 (pM)

- binder: "hz-Ab21-1.2 (antibody, human IgG1, kappa, V domains shown, Humanized antibody) VH: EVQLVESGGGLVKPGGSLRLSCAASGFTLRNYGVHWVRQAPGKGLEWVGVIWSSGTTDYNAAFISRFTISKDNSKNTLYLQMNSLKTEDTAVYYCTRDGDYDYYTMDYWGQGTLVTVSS VL: EIVLTQSPATLSLSPGERATLSCRASKSVSTSAYSYIHWYQQKPGQAPRLLIYLTSNLESGIPARFSGSGSGTDFTLTISSLEPEDFAVYYCQHSRELPYTFGQGTKVEIKR"
  numeric.value: 248
- binder: "ch-Ab35 (antibody, human IgG1, kappa, V domains shown, Mouse VH/VL on human IgG1 and human kappa constant regions; also called chimeric antibody of Ab35) VH: EVQLQQSGPDLVRPGASVKLSCKASGYTFTSSDINWVKQRPGQGLEWIGWIYPRDGSKKYNEKFKGKATLTVDTSSSTAYMEVHSLTSEDSAVYFCATRFATVVSNYGLDPWGQGTSVTVSS VL: AIVLTQSPAIMSASPGEKVTMTCSASSSVNYIYWYQRKPGSSPRLLIYDTSNLASGVPVRFSGSGSGTSYSLTISRMEAEDAATYYCQQWNSYPLTFGAGTKLELKR"
  numeric.value: 43
- binder: "hz-Ab21-2.1 (antibody, human IgG1, kappa, V domains shown, Humanized antibody) VH: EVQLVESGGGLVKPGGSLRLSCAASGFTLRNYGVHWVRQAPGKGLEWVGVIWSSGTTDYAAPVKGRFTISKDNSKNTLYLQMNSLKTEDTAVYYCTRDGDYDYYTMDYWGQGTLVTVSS VL: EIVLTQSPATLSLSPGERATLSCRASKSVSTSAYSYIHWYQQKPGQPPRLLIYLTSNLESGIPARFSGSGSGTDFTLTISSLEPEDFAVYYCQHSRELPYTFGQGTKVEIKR"
  numeric.value: 214
